Hello, the source for this data is patent US6720423B2, in case you need it.

- assay system: RXRγ (UniProt P28705)
- test summary: receptor transactivation assay, RXRγ
- Assay type: cell-based
- Design: RXR Trans; other: RXRγ; first entry of cell
- condition label: first entry of cell, read-out: RXR Trans. EC50 (nM) γ
- Source text: A holoreceptor transactivation assay and a ligand binding assay which measure the antagonist/agonist like activity of the compounds of the invention, or their ability to bind to the several retinoid receptor subtypes, respectively, are described in published PCT Application No. WO WO93/11755 (particularly on pages 30-33 and 37-41) published on Jun. 24, 1993, the specification of which is also incorporated herein by reference. […]
log10 EC50 overview
Recorded EC50 (log10, nM)

Worked examples follow.
{"columns": ["compound", "test readout", "measurement"],
 "data": [
  ["CC(/C=C/[C@@H]1C[C@]1(C)c1cc(-c2ccccc2)c2c(c1)C(C)(C)CO2)=C\\C(=O)O", "log10 EC50", 1.11],
  ["CCCCC(O)CCc1cc([C@@]2(C)C[C@H]2/C=C/C(C)=C/C(=O)O)cc2c1OCC2(C)C (stereo partly shown)", "log10 EC50", 3.89],
  ["CC(/C=C/[C@@H]1C[C@]1(C)c1cc(CC2CCCCC2)c2c(c1)C(C)(C)CO2)=C\\C(=O)O", "log10 EC50", -0.54]
]}

Fill: log10 EC50 (RXRγ (UniProt P28705)) for this compound `CC(/C=C/[C@@H]1C[C@]1(C)c1cc(-c2ccccc2C)c2c(c1)C(C)(C)CO2)=C\C(=O)O`
-0.49

Fill: log10 EC50 (RXRγ (UniProt P28705)) for this compound `CCCCCCc1cc([C@@]2(C)C[C@H]2/C=C/C(C)=C/C(=O)O)cc2c1OCC2(C)C`
-0.44

Fill: log10 EC50 (RXRγ (UniProt P28705)) for this compound `CC(/C=C/[C@@H]1C[C@]1(C)c1cc(Cc2ccccc2)c2c(c1)C(C)(C)CO2)=C\C(=O)O`
-1.01

----------
- assay system: RXRβ (UniProt P28704)
- Sequence (P28704 1-520): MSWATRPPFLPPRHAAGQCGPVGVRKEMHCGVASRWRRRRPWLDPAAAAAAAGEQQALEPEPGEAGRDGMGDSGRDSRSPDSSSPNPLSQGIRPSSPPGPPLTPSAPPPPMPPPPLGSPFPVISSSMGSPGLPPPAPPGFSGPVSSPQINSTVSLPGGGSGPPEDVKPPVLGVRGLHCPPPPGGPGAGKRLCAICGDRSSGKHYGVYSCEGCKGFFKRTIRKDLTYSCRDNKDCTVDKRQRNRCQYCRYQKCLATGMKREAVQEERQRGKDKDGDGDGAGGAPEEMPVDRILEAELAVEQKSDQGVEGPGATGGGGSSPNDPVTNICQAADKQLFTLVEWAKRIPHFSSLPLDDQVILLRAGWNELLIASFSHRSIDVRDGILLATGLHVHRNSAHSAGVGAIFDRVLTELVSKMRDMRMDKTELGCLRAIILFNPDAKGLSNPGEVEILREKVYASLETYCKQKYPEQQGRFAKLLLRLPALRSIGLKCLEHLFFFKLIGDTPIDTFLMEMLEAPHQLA
- test summary: receptor transactivation assay, RXRβ
- Assay type: cell-based
- Set-up: RXR Trans; other: RXRβ; first entry of cell
- condition label: first entry of cell, read-out: RXR Trans. EC50 (nM) β
API: label(entry) gives t if the entry's EC50 is strictly smaller than 10 nM; on equality or larger values it gives f.

Worked set:
{"columns": ["compound", "classification"],
 "data": [
  ["COc1ccc(-c2cc([C@@]3(C)C[C@H]3/C=C/C(C)=C/C(=O)O)cc3c2OCC3(C)C)cc1", "f"],
  ["CC(/C=C/[C@@H]1C[C@]1(C)c1cc(-c2ccc(C(C)(C)C)cc2)c2c(c1)C(C)(C)CO2)=C\\C(=O)O", "f"],
  ["CCCCC(O)CCc1cc([C@@]2(C)C[C@H]2/C=C/C(C)=C/C(=O)O)cc2c1OCC2(C)C (stereo partly drawn)", "f"],
  ["CC(/C=C/[C@@H]1C[C@]1(C)c1cc(C(C)C)c2c(c1)C(C)(C)CO2)=C\\C(=O)O", "t"],
  ["CC(/C=C/[C@@H]1C[C@@H]1c1ccc2c(c1)C(C)(C)CO2)=C\\C(=O)O", "f"],
  ["CC(/C=C/[C@@H]1C[C@]1(C)c1cc(C(C)(C)C)c2c(c1)C(C)(C)CO2)=C\\C(=O)O", "f"],
  ["CC(/C=C/[C@@H]1C[C@]1(C)c1cc(CC2CCCCC2)c2c(c1)C(C)(C)CO2)=C\\C(=O)O", "t"],
  ["CCc1cc([C@@]2(C)C[C@H]2/C=C/C(C)=C/C(=O)O)cc2c1OCC2(C)C", "t"]
]}

Is it true that EC50 reported for `CCCCCCc1cc([C@@]2(C)C[C@H]2/C=C/C(C)=C/C(=O)O)cc2c1OCC2(C)C` is less than 10 nM?
t

Is it true that EC50 reported for `CC(/C=C/[C@@H]1C[C@]1(C)c1cc(Cc2ccccc2)c2c(c1)C(C)(C)CO2)=C\C(=O)O` is less than 10 nM?
t

Is it true that EC50 reported for `CC(/C=C/[C@@H]1C[C@]1(C)c1cc(-c2ccccc2)c2c(c1)C(C)(C)CO2)=C\C(=O)O` is less than 10 nM?
f
